Data provenance: the supplement of paper PMC8975748

# Test system: Saccharomyces cerevisiae BY4741 SeMeCo community
# protocol: z-score of subpopulation abundance vs DMSO median, subpopulation auxotrophic for HLUM; higher = larger share of this subpopulation than in DMSO controls
# stated.conditions: 10 µM; 24 h; SM minimal medium; subpopulation (auxotrophy): HLUM
measured.property: z-score of subpopulation abundance
Kindly provide the number alone.

1. COc1ncnc(NS(=O)(=O)c2ccc(N)cc2)c1OC	0.32
2. CCOC(=O)C1=C(C)NC(C)=C(C(=O)OCC)C1c1ccccc1/C=C/C(=O)OC(C)(C)C	-0.21
3. CC(C)(C)C(=O)C(Oc1ccc(Cl)cc1)n1ccnc1 (stereo not drawn)	8.88
4. C[C@H]1[C@H](NC(=O)/C(=N\OC(C)(C)C(=O)O)c2csc(N)n2)C(=O)N1S(=O)(=O)O	0.34
5. CN1CC(=O)N2[C@H](c3ccc4c(c3)OCO4)c3[nH]c4ccccc4c3C[C@@H]2C1=O	1.5

Request: Name the recorded z-score of subpopulation abundance for COCCCN1CCC(NC(=O)c2cc(Cl)c(N)c3c2OCC3)CC1 [Prucalopride] .
Response: -0.34

Request: Give its z-score of subpopulation abundance value. Item: O=c1c(-c2ccc(O)cc2)coc2c([C@@H]3O[C@H](CO)[C@@H](O)[C@H](O)[C@H]3O)c(O)ccc12
Response: -0.33

Request: z-score of subpopulation abundance for CC(C)c1c(C(=O)Nc2ccccc2)c(-c2ccccc2)c(-c2ccc(F)cc2)n1CC[C@@H](O)C[C@@H](O)CC(=O)O [Atorvastatin] ?
Response: 0.49

Request: I have this molecule here, C[C@H](NCc1ccc(OCc2cccc(F)c2)cc1)C(N)=O [Safinamide] , and I need its recorded z-score of subpopulation abundance.
Response: 0.95

Request: Which z-score of subpopulation abundance value is on record for CC(C)c1nc(N(C)S(C)(=O)=O)nc(-c2ccc(F)cc2)c1/C=C/[C@@H](O)C[C@@H](O)CC(=O)O [Rosuvastatin Calcium] ?
Response: 0.9

Request: Can you share its z-score of subpopulation abundance? I mean this molecule: CN1[C@@H]2CC[C@H]1C[C@@H](OC(=O)c1c[nH]c3ccccc13)C2
Response: 0.38

###

# System: Saccharomyces cerevisiae BY4741 SeMeCo community
# protocol: z-score of subpopulation abundance vs DMSO median, subpopulation auxotrophic for HM; higher = larger share of this subpopulation than in DMSO controls
# stated.conditions: 10 µM; 24 h; SM minimal medium; subpopulation (auxotrophy): HM
Known z-score of subpopulation abundance of a selection of compounds
Number, no unit, nothing else.

1) O=C(CCCN1CCC(O)(c2ccc(Cl)cc2)CC1)c1ccc(F)cc1 [Haloperidol]	-0.68

Here is another compound to look at.
Request: Saccharomyces cerevisiae BY4741 SeMeCo community / z-score of subpopulation abundance / CN[C@H]1C(=O)N[C@@H]2Cc3ccc(cc3)Oc3cc4cc(c3O[C@@H]3O[C@H](C(=O)O)[C@@H](O)[C@H](O)[C@H]3NC(=O)CCCCCCCCC(C)C)Oc3ccc(cc3Cl)[C@@H](O)[C@@H]3NC(=O)[C@H](NC(=O)[C@@H]4NC(=O)[C@@H](NC2=O)c2cc(cc(O)c2Cl)Oc2cc1ccc2O)c1ccc(O)c(c1)-c1c(O[C@H]2O[C@H](CO)[C@@H](O)[C@H](O)[C@@H]2O)cc(O)cc1[C@@H](C(=O)NCCCN(C)C)NC3=O [Dalbavancin] : value?
Response: -1.02

###

z-score of subpopulation abundance values for the compounds below.
# System: Saccharomyces cerevisiae BY4741 SeMeCo community
# protocol: z-score of subpopulation abundance vs DMSO median, subpopulation auxotrophic for HU; higher = larger share of this subpopulation than in DMSO controls
# stated.conditions: 10 µM; 24 h; SM minimal medium; subpopulation (auxotrophy): HU
Counter-ions that a name gives are not always drawn.
Returns: the value as a bare number; no unit string appended.

Below: 5 compounds and their reported z-score of subpopulation abundance.
1. C[C@@H](NCCCc1cccc(C(F)(F)F)c1)c1cccc2ccccc12 [Cinacalcet HCl]	-1.71
2. CCCCOc1ccc(CC(=O)NO)cc1	0.4
3. O=C(O)c1ccccc1C(=O)Nc1ccc(S(=O)(=O)Nc2nccs2)cc1	1.23
4. CN(C)CCCN1c2ccccc2CCc2ccc(Cl)cc21 [Clomipramine HCl]	0.31
5. O=C(Nc1c(Cl)cncc1Cl)c1ccc(OC(F)F)c(OCC2CC2)c1	0.22

Request: Form field: reported z-score of subpopulation abundance of Cc1nccn1CC1CCc2c(c3ccccc3n2C)C1=O (stereo not drawn) [Ondansetron Hydrochloride Dihydrate]
Response: 0.2

Request: Recorded z-score of subpopulation abundance of O=C([O-])CC(O)(CC(=O)[O-])C(=O)[O-].O=C([O-])CC(O)(CC(=O)[O-])C(=O)[O-].[Bi+3].[K+].[K+].[K+].[K+].[K+] [Bismuth Subcitrate Potassium] , please.
Response: 2.94

Request: Name the reported z-score of subpopulation abundance value associated with the compound Oc1c(I)cc(I)c2cccnc12 [Diiodohydroxyquinoline]
Response: 2.97

###

Consider the following molecules and their measured z-score of subpopulation abundance readings.
# Test system: Saccharomyces cerevisiae BY4741 SeMeCo community
# protocol: z-score of subpopulation abundance vs DMSO median, subpopulation auxotrophic for HL; higher = larger share of this subpopulation than in DMSO controls
# stated.conditions: 10 µM; 24 h; SM minimal medium; subpopulation (auxotrophy): HL
Where a name gives a salt, the structure may show the parent alone.
Output: the number by itself.

1) COc1cc([C@@H]2c3cc4c(cc3[C@@H](O[C@@H]3O[C@@H]5CO[C@@H](C)O[C@H]5[C@H](O)[C@H]3O)[C@H]3COC(=O)[C@H]23)OCO4)cc(OC)c1O [Etoposide]	0.84
2) CC1(C)S[C@@H]2[C@H](NC(=O)[C@H](C(=O)O)c3ccsc3)C(=O)N2[C@H]1C(=O)O [Ticarcillin sodium]	2.48
3) CCN(CC)CCOc1ccc(C(=C(Cl)c2ccccc2)c2ccccc2)cc1 [Clomifene citrate]	1.64

Request: Query: z-score of subpopulation abundance; subject: CC[C@H](C)C(=O)O[C@H]1C[C@H](O)C=C2C=C[C@H](C)[C@H](CC[C@@H](O)C[C@@H](O)CC(=O)O)[C@H]21 [Pravastatin sodium]
Response: 0.84

Request: Record request: z-score of subpopulation abundance value, item CCC(C)n1ncn(-c2ccc(N3CCN(c4ccc(OCC5COC(Cn6cncn6)(c6ccc(Cl)cc6Cl)O5)cc4)CC3)cc2)c1=O (stereo unspecified)
Response: 17.3

Request: What value of measured z-score of subpopulation abundance is listed for C#C[C@]1(O)CC[C@H]2[C@@H]3CCc4cc(OC)ccc4[C@H]3CC[C@@]21C ?
Response: -0.16

Request: Which z-score of subpopulation abundance reading was recorded for the molecule c1ccc2[nH]c(-c3cscn3)nc2c1 ?
Response: -0.01

Request: What does the data say about its z-score of subpopulation abundance? Entry: C[N+]1(C)[C@@H]2CC[C@H]1C[C@@H](OC(=O)C(O)c1ccccc1)C2 (stereo partly specified) [Homatropine Methylbromide]
Response: -0.55

Request: What z-score of subpopulation abundance value was documented for this molecule, C=CCN1CCCC1CNC(=O)c1cc2nn[nH]c2cc1OC (stereo unspecified) [Alizapride HCl] ?
Response: -0.36

Request: Reported z-score of subpopulation abundance for O=C1CC2(CCCC2)CC(=O)N1CCCCN1CCN(c2ncccn2)CC1 [Buspirone HCl] : what is it?
Response: 0

Request: Quick one: z-score of subpopulation abundance for Cc1ccc(Cl)c(Nc2ccccc2C(=O)O)c1Cl [Meclofenamate Sodium] ?
Response: -0.49

Request: Field request: z-score of subpopulation abundance | item: Nc1c(Br)cc(Br)cc1CN[C@H]1CC[C@H](O)CC1 [Ambroxol HCl]
Response: -0.86

Request: Recorded z-score of subpopulation abundance for O=C(Cn1cnnn1)N[C@@H]1C(=O)N2C(C(=O)O)=C(CSc3nncs3)CS[C@H]12 [Ceftezole sodium] , please?
Response: 0

Request: Can you look up the measured z-score of subpopulation abundance of O=C(CCCN1CC=C(n2c(=O)[nH]c3ccccc32)CC1)c1ccc(F)cc1 for me?
Response: 0.21

###

# System: Saccharomyces cerevisiae BY4741 SeMeCo community
# protocol: z-score of prototroph abundance vs DMSO median; higher = larger share of this subpopulation than in DMSO controls
# stated.conditions: 10 µM; 24 h; SM minimal medium; subpopulation (auxotrophy): Prototroph
Structures can show the parent of a compound that is named as a salt.
measured.property: z-score of prototroph abundance
The response must contain the number and no unit.

// known answers, use as guide
1) CCC1(c2ccccc2)C(=O)NCNC1=O	0.08
2) CC1(C)S[C@@H]2[C@H](NC(=O)[C@H](N)c3ccccc3)C(=O)N2[C@H]1C(=O)OCOC(=O)[C@@H]1N2C(=O)C[C@H]2S(=O)(=O)C1(C)C	-1.74
3) Cc1onc(-c2c(Cl)cccc2Cl)c1C(=O)N[C@@H]1C(=O)N2[C@@H]1SC(C)(C)[C@@H]2C(=O)O [Dicloxacillin Sodium]	0.04
4) NCCNc1ccc(NCCN)c2c1C(=O)c1ccncc1C2=O [Pixantrone Maleate]	3.16
5) CO/N=C(\C(=O)N[C@@H]1C(=O)N2C(C(=O)[O-])=C(C[n+]3cccc4c3CCC4)CS[C@H]12)c1csc(N)n1 [Cefpirome sulfate]	-0.2
6) C=C[C@H]1CN2CC[C@H]1C[C@@H]2[C@@H](O)c1ccnc2ccc(OC)cc12 [Quinidine sulfate]	-1.18

Request: // query z-score of prototroph abundance value for entry C[C@]12CC[C@@H]3c4ccc(O)cc4CC[C@H]3[C@@H]1CC[C@@H]2O
Response: 0.44
